Ref: the supplement of paper PMC9112550

Test system: Escherichia coli TOP10
Test: shrunken log2 fold change of peptide-encoding DNA abundance (4.5 h post-induction vs induction); higher = less antimicrobial activity (less host growth inhibition)
Settings: time post-induction: 4.5 h; library: site-saturation at positions 5, 18, 19, 20
measured quantity: shrunken log2 fold change
No unit in the answer, please; the number alone is enough.

Would you please look over these solved cases?
RRIRWRPPRLPRPRPRPEGLPRP = 0.267
RRIRFRPPRLPRPRPRPCCNPRP = -0.0548
RRIRSRPPRLPRPRPRPMIVPRP = -0.377
RRIRWRPPRLPRPRPRPHKTPRP = 0.175

IN: Under Escherichia coli TOP10: report shrunken log2 fold change of RRIRYRPPRLPRPRPRPCMEPRP .
OUT: -0.0771

IN: Under Escherichia coli TOP10: report shrunken log2 fold change of RRIRNRPPRLPRPRPRPVLVPRP .
OUT: -0.211

IN: Under Escherichia coli TOP10: report shrunken log2 fold change of RRIRTRPPRLPRPRPRPFEHPRP .
OUT: -0.32

IN: Under Escherichia coli TOP10: report shrunken log2 fold change of RRIRARPPRLPRPRPRPRCPPRP .
OUT: 0.248

IN: Under Escherichia coli TOP10: report shrunken log2 fold change of RRIRNRPPRLPRPRPRPTIKPRP .
OUT: -0.496

IN: Under Escherichia coli TOP10: report shrunken log2 fold change of RRIRHRPPRLPRPRPRPEPGPRP .
OUT: -0.044

* * *

System: Escherichia coli TOP10;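 note: peptides expressed intracellularly from a pBAD plasmid library in pooled LB shake-flask culture, induced with 0.3% L-arabinose, DNA abundance read by NGS, three biological replicates, DESeq2 with apeglm shrinkage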
Assay: shrunken log2 fold change of peptide-encoding DNA abundance (4.5 h post-induction vs induction); higher = less antimicrobial activity (less host growth inhibition)
Settings: time post-induction: 4.5 h; library: site-saturation at positions 5, 18, 19, 20
measured quantity: shrunken log2 fold change
No unit in the answer, please; the number alone is enough.

Would you please look over these solved cases?
RRIRDRPPRLPRPRPRPYLVPRP = -0.506
RRIRLRPPRLPRPRPRPDPKPRP = 0.331
RRIRQRPPRLPRPRPRPIRTPRP = -0.0597
RRIRRRPPRLPRPRPRPMDCPRP = 0.00462
RRIRWRPPRLPRPRPRPQIWPRP = 0.0603

IN: In one line, give reported shrunken log2 fold change of the entry RRIRHRPPRLPRPRPRPQQCPRP .
OUT: -0.0705

IN: In one line, give reported shrunken log2 fold change of the entry RRIRVRPPRLPRPRPRPWMRPRP .
OUT: 0.731

IN: In one line, give reported shrunken log2 fold change of the entry RRIRDRPPRLPRPRPRPAQQPRP .
OUT: -0.0267

IN: In one line, give reported shrunken log2 fold change of the entry RRIRSRPPRLPRPRPRPQRQPRP .
OUT: 0.116

IN: In one line, give reported shrunken log2 fold change of the entry RRIRRRPPRLPRPRPRPIHEPRP .
OUT: 0.086

IN: In one line, give reported shrunken log2 fold change of the entry RRIRERPPRLPRPRPRPLHEPRP .
OUT: -0.65

IN: In one line, give reported shrunken log2 fold change of the entry RRIRIRPPRLPRPRPRPNGQPRP .
OUT: -0.0848

IN: In one line, give reported shrunken log2 fold change of the entry RRIRARPPRLPRPRPRPALYPRP .
OUT: 0.332

IN: In one line, give reported shrunken log2 fold change of the entry RRIRKRPPRLPRPRPRPSYSPRP .
OUT: -0.413

IN: In one line, give reported shrunken log2 fold change of the entry RRIRWRPPRLPRPRPRPNHWPRP .
OUT: -0.0748

IN: In one line, give reported shrunken log2 fold change of the entry RRIRFRPPRLPRPRPRPPWCPRP .
OUT: 0.0236

IN: In one line, give reported shrunken log2 fold change of the entry RRIRCRPPRLPRPRPRPANNPRP .
OUT: -0.409

IN: In one line, give reported shrunken log2 fold change of the entry RRIRGRPPRLPRPRPRPLALPRP .
OUT: 0.665
